- Tested on: P388
- ASSAY_PROTOCOL: Cytotoxicity evaluated against P388 cells.
- Format: functional, cell-based
- DETAILS: Mus musculus
Catalogue of log10(IC50) readings, one per entry.
Please note: log10 values; quantity IC50; unit µM.

Incoming: Recorded log10(IC50) of CCN(CC)CCC(=O)c1ccc(Cl)c(Cl)c1 , please.
Outgoing: -0.51

* * *

- Tested on: P388
- ASSAY_PROTOCOL: Cytotoxicity evaluated against P388 cells.
- Type: functional, cell-based
- DETAILS: Mus musculus
ENDPOINT: pIC50
# reply with the number alone; pIC50 is -log10 of concentration in mol/L

Recorded results for 4 compounds are shown here.
COMPOUND	ENDPOINT	MEASURED
CC[N+]1(C)CC[C@@](O)(c2ccc(OC)cc2)[C@H](C(=O)c2ccc(OC)cc2)C1 (stereo not given in full)	pIC50	6.01
CCN1CC[C@@](O)(/C=C/c2ccc(C)cc2)[C@H](C(=O)/C=C/c2ccc(C)cc2)C1.Cl	pIC50	5.68
CCN1CC[C@@](O)(/C=C/c2ccccc2)[C@H](C(=O)/C=C/c2ccccc2)C1	pIC50	5.85
CC[N+]1(C)CC[C@@](O)(c2ccc(Cl)cc2)[C@H](C(=O)c2ccc(Cl)cc2)C1 (stereo not given in full)	pIC50	5.82

// next item, pIC50 requested
Incoming: Recorded pIC50 of CCN1CC[C@@](O)(c2ccc(OC)cc2)[C@H](C(=O)c2ccc(OC)cc2)C1 , please.
Outgoing: 5.38

Where do the numbers come from? From ChEMBL document CHEMBL1131136.
